Target: T1, Rat NPY Y5 receptor, Y861 clone (rat, UniProt Q63634 1-445)
T1 construct: also called RAT Y861 Clone; Rat Y5 (Y861)
T1 sequence: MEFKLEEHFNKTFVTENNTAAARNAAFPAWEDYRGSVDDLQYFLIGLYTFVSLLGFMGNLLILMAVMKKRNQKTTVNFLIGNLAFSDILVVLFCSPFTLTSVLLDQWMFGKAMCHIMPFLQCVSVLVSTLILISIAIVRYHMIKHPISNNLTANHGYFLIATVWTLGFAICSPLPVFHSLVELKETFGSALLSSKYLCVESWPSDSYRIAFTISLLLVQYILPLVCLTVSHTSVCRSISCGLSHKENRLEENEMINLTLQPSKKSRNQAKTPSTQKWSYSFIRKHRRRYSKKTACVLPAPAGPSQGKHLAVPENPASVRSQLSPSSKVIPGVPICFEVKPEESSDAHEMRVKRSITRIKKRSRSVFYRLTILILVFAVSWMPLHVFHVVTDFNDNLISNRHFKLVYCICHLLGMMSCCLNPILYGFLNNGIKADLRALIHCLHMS
Assay: competition with [125I]PYY, rat Y5 Y861 clone
pIC50: −log10 of the molar value.
readout_type: pIC50

1: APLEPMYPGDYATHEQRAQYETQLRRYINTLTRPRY (ligand, UniProt P06303 30-65, looked up, mature; also called rPP; rat PP) [rat pancreatic polypeptide]
2: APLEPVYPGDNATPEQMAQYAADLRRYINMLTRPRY (ligand, UniProt P01298 30-65, looked up, mature; also called hPP) [human pancreatic polypeptide]
Q. Which one would you say has the larger pIC50 value: 1 , or 2 ? Selection: enter the item's label.
A. 2

Values from patent US20030022283A1
